test system: RPMI-8226 leukemia; assay: NCI tumour cell line growth inhibition, 48 h
observed property: TGI

compound	subject of test	observed property	measurement
CS(=O)(=O)CCN(CC#N)Cc1ccc(-c2ccc3ncnc(Nc4ccc(OCc5cccc(F)c5)c(Cl)c4)c3c2)o1	RPMI-8226 leukemia	TGI	> 25 µM
[C-]#[O+].[C-]#[O+].[C-]#[O+].[C-]#[O+].[O-]C(c1ccccc1[PH+]1OC(C(F)(F)F)(C(F)(F)F)c2ccccc21)(C(F)(F)F)C(F)(F)F.[Re] (stereo not given)	RPMI-8226 leukemia	TGI	12.5 µM
COc1ccc(C2SCc3nc4ccccc4n32)cc1 (stereo not given)	RPMI-8226 leukemia	TGI	13.7 µM
CSC(SC)=C(C#N)C(=O)Nc1ccc(C)cc1	RPMI-8226 leukemia	TGI	> 100 µM
O=C(/C=C/c1ccc(Cl)cc1)c1ccc(Cl)c(Cl)c1	RPMI-8226 leukemia	TGI	8.88 µM

----------
tested on: 786-0 renal; experiment: NCI tumour cell line growth inhibition, 48 h
observed property: TGI

compound	measurement
Clc1ccc2c(NCCNC3CCCCC3)ccnc2c1	20.9 µM
CCc1nnc(CC)n1N1C(=O)CCC1=O	> 100 µM
CCOC(=O)Cn1c(=O)[nH]c(=O)c2c1ncn2Cc1ccccc1	> 100 µM
COC(=O)Cc1c(C(=O)CC(C)(C)n2cnc(CCN3C(=O)CCC3=O)c2)[nH]c2ccccc12	> 100 µM
CC(C)(C)C1=NC(=P(c2ccccc2)(c2ccccc2)c2ccccc2)C(=O)O1	> 100 µM
O=C1Nc2ccccc2C12CCCC2	> 100 µM
Nc1cccc(CCN2CCN(CCCc3ccccc3)CC2)c1	37.4 µM
CSC(SC)=C(C#N)C(=O)Nc1ccc(C)cc1	> 100 µM
Oc1c(I)cc(I)cc1CNCCN(Cc1ccccn1)Cc1ccccn1	2.75 µM
CCN1C(C)(C)CC(Oc2ccc(C(=O)Nc3ccc(NC(=O)Nc4cc(C(C)(C)C)on4)cc3)nc2)CC1(C)C	3.52 µM
CN1CCN(CC(=O)N2CCCn3c2nc2ccccc2c3=O)CC1	> 100 µM
COC1=CC(=O)[C@]2(C)[C@H](C1=O)C(C)[C@H]2c1ccc(OC)cc1 (some centres not stated)	> 100 µM
CNC(=O)Oc1ccc(C(=S)Nc2ccc(Br)cc2)cc1	60.5 µM
COc1ccc(C2=C(Cl)C(=O)N(c3ccc(OC)cc3OC)C(=O)C2(Cl)Cl)cc1	29 µM
C1OC1C1CO1 (configuration not stated)	> 100 µM
[C-]#[O+].[C-]#[O+].[C-]#[O+].[C-]#[O+].[O-]C(c1ccccc1[PH+]1OC(C(F)(F)F)(C(F)(F)F)c2ccccc21)(C(F)(F)F)C(F)(F)F.[Re] (configuration not stated)	15.3 µM
O=C(O)CCN1CCN(CCC(=O)O)CCN(CCC(=O)O)CC1	> 100 µM
N=C1N(/N=C/c2ccccn2)C(=Nc2ccccc2)C(=S)N1c1ccccc1	13.7 µM
CC(=O)CC(=O)Nc1ccccc1[N+](=O)[O-]	> 100 µM
O=C(CSc1nnc(-c2ccccn2)s1)N/N=C/c1ccc([N+](=O)[O-])cc1	> 100 µM
N#Cc1c(N2CCCC2)ncn(-c2ccccc2)c1=S	> 100 µM
O=S(=O)(O)c1cc(N=Nc2cccc3ccccc23)c(O)c2ncccc12	> 100 µM

Origin of values: PubChem BioAssay (NCI)
